Numbers sourced from patent US20110097274A1.

System: SERT
Assay: Baboon PET imaging: brain uptake, kinetic analysis and SERT parameters
Assay type: in vivo
Conditions: baboons, mean of all regions
measured_attribute: Mean regional peak uptake time (min)
Give the value in min but do not write min after it.

Value of Mean regional peak uptake time reported for the compound CN(C)Cc1ccccc1Sc1ccc(I)cc1N [[^11C]ADAM] is 37

Lookup result for CN(C)Cc1ccccc1Sc1ccc(Br)cc1N [[^11C]DAPA] ; measured Mean regional peak uptake time: 50

# Mean regional peak uptake time of [11CH3]Sc1ccc([C@H]2CN3CCC[C@H]3c3ccccc32)cc1 [[^11C]McN 5652] = 28

# Mean regional peak uptake time of CN(C)Cc1ccccc1Sc1ccc(C#N)cc1N [[^11C]DASB] = 19

The recorded Mean regional peak uptake time for CN([11CH3])Cc1ccccc1Sc1ccc(CF)cc1N [[^11C]AFM] is 38

---

System: SERT
Assay: Baboon PET imaging: brain uptake, kinetic analysis and SERT parameters
Assay type: in vivo
Conditions: male, baboon, brain, thalamus, intravenous; one-tissue compartment model; baboons, mean ± SD of four experiments; read-out: VT Thalamus
measured_attribute: Kp
# print the numeric value only

So, CN(C)Cc1ccccc1Sc1ccc(I)cc1N [[^11C]ADAM] ? Its Kp was 59.9

Entry CN(C)Cc1ccccc1Sc1ccc(Br)cc1N [[^11C]DAPA] — recorded Kp = 74.4

Query CN(C)Cc1ccccc1Sc1ccc(C#N)cc1N [[^11C]DASB] yields Kp of 47.5

---

Provide the reported % ID/g Cerebellum of each item.
Assay: Biodistribution of labeled radioligands in male Sprague-Dawley rats
Assay type: in vivo
Details: 60 min post-injection; mean ± SD, n = 3
Provide a numeric answer, followed by its unit.

Entry CN([11CH3])Cc1ccccc1Sc1ccc(CF)cc1N [[^11C]AFM] , % ID/g Cerebellum reported as 0.21 ± 0.04 % ID/g

CN(C)Cc1ccccc1Sc1ccc(C[18F])cc1N [[^18F]AFM] yielded % ID/g Cerebellum of 0.13 ± 0.02 % ID/g

// % ID/g Cerebellum value for Cc1ccc(Sc2ccccc2CN(C)[11CH3])c(N)c1 [[^11C]MADAM] : 0.27 ± 0.01 % ID/g

% ID/g Cerebellum recorded for this molecule, CN([11CH3])Cc1ccccc1Sc1ccc(F)cc1N [[^11C]AFA] , is 0.09 ± 0.02 % ID/g

The reported % ID/g Cerebellum of the molecule CN(C)Cc1ccccc1Sc1ccc(CCF)cc1N [[^11C]AFE] was 0.05 ± 0.00 % ID/g

Record CN(C)Cc1ccccc1Sc1ccc(CC[18F])cc1N [[^18F]AFE] . Reported % ID/g Cerebellum: 0.06 ± 0.01 % ID/g

Looking up CN(C)Cc1ccccc1Sc1ccc([18F])cc1N [[^18F]AFA] , I see its % ID/g Cerebellum listed as 0.07 ± 0.01 % ID/g

---

Test system: SERT
Test: Baboon PET imaging: brain uptake, kinetic analysis and SERT parameters
Type: in vivo
Conditions: one-tissue compartment model; baboons, mean ± SD of four experiments
Assignment: determine reported K2 Cingulate Cortex for the given compounds.
Provide the reading as a plain figure in min⁻¹.

The compound identified as CN(C)Cc1ccccc1Sc1ccc(I)cc1N [[^11C]ADAM] registered its K2 Cingulate Cortex at 0.033

// [11CH3]Sc1ccc([C@H]2CN3CCC[C@H]3c3ccccc32)cc1 [[^11C]McN 5652] : K2 Cingulate Cortex value = 0.031

Memo: CN([11CH3])Cc1ccccc1Sc1ccc(CF)cc1N [[^11C]AFM] , reported K2 Cingulate Cortex: 0.039

Sample CN(C)Cc1ccccc1Sc1ccc(Br)cc1N [[^11C]DAPA] ; K2 Cingulate Cortex observed: 0.025

Entry CN(C)Cc1ccccc1Sc1ccc(C#N)cc1N [[^11C]DASB] — recorded K2 Cingulate Cortex = 0.060
